# Target or system: human H1 receptor (Homo sapiens, UniProt P35367)
# Construct: expressed in transfected cells
# Sequence (P35367 whole entry): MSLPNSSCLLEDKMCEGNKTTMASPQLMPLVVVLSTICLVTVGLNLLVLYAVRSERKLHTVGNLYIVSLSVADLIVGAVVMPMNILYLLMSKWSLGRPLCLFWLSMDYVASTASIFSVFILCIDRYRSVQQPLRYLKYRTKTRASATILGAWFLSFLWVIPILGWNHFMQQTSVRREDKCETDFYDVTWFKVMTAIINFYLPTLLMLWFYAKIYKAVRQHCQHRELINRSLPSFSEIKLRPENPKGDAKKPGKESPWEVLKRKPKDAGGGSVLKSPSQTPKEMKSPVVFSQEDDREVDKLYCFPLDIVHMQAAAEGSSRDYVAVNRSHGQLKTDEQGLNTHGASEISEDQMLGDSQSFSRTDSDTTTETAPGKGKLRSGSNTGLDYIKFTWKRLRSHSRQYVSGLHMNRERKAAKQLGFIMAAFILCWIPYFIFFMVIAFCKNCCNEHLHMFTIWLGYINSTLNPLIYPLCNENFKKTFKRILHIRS
# Assay protocol: Histamine H1 functional antagonist assay (FLIPR): antagonist pA2
# Type: cell-based
# Test settings: CHO cells expressing H1 receptor, FLIPR, histamine concentration response curves; read-out: average pA2 (converted)
Structures can show the parent of a compound that is named as a salt.
# Lookup of reported Kb keyed by entry

- Compound: "CCCCc1cc(OC2CCN(CCCCNS(=O)(=O)CC3CCCCC3)CC2)c2ncccc2c1 [Example 28, dihydrochloride salt]"
  Kb: "< 0.01 µM"
- Compound: "CCCCc1cc(OC2CCN(CCCS(C)(=O)=O)CC2)c2ncccc2c1 [Example 3, dihydrochloride salt]"
  Kb: "< 0.01 µM"
- Compound: "CCCCc1cc(OC2CCN(CCNS(=O)(=O)c3ccccc3)CC2)c2ncccc2c1 [Example 16, dihydrochloride salt]"
  Kb: "< 0.01 µM"
- Compound: "CCCCc1cc(OC2CCN(CCCCCNS(C)(=O)=O)CC2)c2ncccc2c1 [Example 31, dihydrochloride salt]"
  Kb: "< 0.001 µM"
- Compound: "CCCCc1cc(OC2CCN(C3CCS(=O)(=O)C3)CC2)c2ncccc2c1 (centres unmarked)"
  Kb: "< 0.1 µM"

Entry source: patent US7884114B2
